Attribute: inhibition (INH)
System: L929
PROCEDURE_DETAILS: Growth inhibition in mouse L929 cells after 48 hrs
Format: functional
Parameters: concentration or dose not given beside the values
REPORTED_PROPERTY: inhibition (INH) (%)

- SAMPLE_SMILES: "CC(=O)OC[C@H]1O[C@@H](NC(=O)NCCCc2ccc(N(CCCl)CCCl)cc2)[C@H](F)[C@@H](OC(C)=O)[C@@H]1OC(C)=O"
  REPORTED_PROPERTY: "inhibition (INH)"
  UNIT_DESCRIPTOR: "%"
  NUMBER: 40
- SAMPLE_SMILES: "CC(=O)OC[C@H]1O[C@@H](NC(=O)CNC(=O)CCCc2ccc(N(CCCl)CCCl)cc2)[C@H](F)[C@@H](OC(C)=O)[C@@H]1OC(C)=O"
  REPORTED_PROPERTY: "inhibition (INH)"
  UNIT_DESCRIPTOR: "%"
  NUMBER: 70
- SAMPLE_SMILES: "O=C(O)CCCc1ccc(N(CCCl)CCCl)cc1"
  REPORTED_PROPERTY: "inhibition (INH)"
  UNIT_DESCRIPTOR: "%"
  NUMBER: 30
- SAMPLE_SMILES: "CC(=O)OC[C@H]1O[C@@H](NC(=O)CCCNC(=O)CCCc2ccc(N(CCCl)CCCl)cc2)[C@H](F)[C@@H](OC(C)=O)[C@@H]1OC(C)=O"
  REPORTED_PROPERTY: "inhibition (INH)"
  UNIT_DESCRIPTOR: "%"
  NUMBER: 50
- SAMPLE_SMILES: "CC(=O)OC[C@H]1O[C@@H](NC(=O)c2ccc(NC(=O)CCCc3ccc(N(CCCl)CCCl)cc3)cc2)[C@H](F)[C@@H](OC(C)=O)[C@@H]1OC(C)=O"
  REPORTED_PROPERTY: "inhibition (INH)"
  UNIT_DESCRIPTOR: "%"
  NUMBER: 50
- SAMPLE_SMILES: "CC(=O)OC[C@H]1O[C@@H](Oc2ccc(NC(=O)CNC(=O)CCCc3ccc(N(CCCl)CCCl)cc3)cc2)[C@H](F)[C@@H](OC(C)=O)[C@@H]1OC(C)=O"
  REPORTED_PROPERTY: "inhibition (INH)"
  UNIT_DESCRIPTOR: "%"
  NUMBER: 40
- SAMPLE_SMILES: "CC(=O)OC[C@H]1O[C@@H](NC(=O)CCNC(=O)CCCc2ccc(N(CCCl)CCCl)cc2)[C@H](F)[C@@H](OC(C)=O)[C@@H]1OC(C)=O"
  REPORTED_PROPERTY: "inhibition (INH)"
  UNIT_DESCRIPTOR: "%"
  NUMBER: 50

----------
PROCEDURE_DETAILS: Cytotoxicity against human primary fibroblasts by resazurin reduction test
Format: cell-based
EXPERIMENTAL_SETUP: Fibroblast
pIC50: −log10 of the molar value.
Assign true to entries whose pIC50 meets or exceeds 5; assign false to the rest.

- COMPOUND: "CC(=O)OC[C@H]1O[C@@H](NC(=O)CCNC(=O)CCCc2ccc(N(CCCl)CCCl)cc2)[C@H](F)[C@@H](OC(C)=O)[C@@H]1OC(C)=O"
  CLASSIFICATION: "true"
- COMPOUND: "CC(=O)OC[C@H]1O[C@@H](NC(=O)c2ccc(NC(=O)CCCc3ccc(N(CCCl)CCCl)cc3)cc2)[C@H](F)[C@@H](OC(C)=O)[C@@H]1OC(C)=O"
  CLASSIFICATION: "true"
- COMPOUND: "CC(=O)OC[C@H]1O[C@@H](NC(=O)CNC(=O)CCCc2ccc(N(CCCl)CCCl)cc2)[C@H](F)[C@@H](OC(C)=O)[C@@H]1OC(C)=O"
  CLASSIFICATION: "true"
- COMPOUND: "CC(=O)OC[C@H]1O[C@@H](NC(=O)CCCNC(=O)CCCc2ccc(N(CCCl)CCCl)cc2)[C@H](F)[C@@H](OC(C)=O)[C@@H]1OC(C)=O"
  CLASSIFICATION: "true"
- COMPOUND: "O=C(O)CCCc1ccc(N(CCCl)CCCl)cc1 [CHLORAMBUCIL]"
  CLASSIFICATION: "false"
- COMPOUND: "CC(=O)OC[C@H]1O[C@@H](Oc2ccc(NC(=O)CCCc3ccc(N(CCCl)CCCl)cc3)cc2)[C@H](F)[C@@H](OC(C)=O)[C@@H]1OC(C)=O"
  CLASSIFICATION: "false"
- COMPOUND: "CC(=O)OC[C@H]1O[C@@H](Oc2ccc(NC(=O)CNC(=O)CCCc3ccc(N(CCCl)CCCl)cc3)cc2)[C@H](F)[C@@H](OC(C)=O)[C@@H]1OC(C)=O"
  CLASSIFICATION: "false"
